# target of assay: CLK3 kinase (Homo sapiens, UniProt P49761)
# Sequence (P49761 whole entry): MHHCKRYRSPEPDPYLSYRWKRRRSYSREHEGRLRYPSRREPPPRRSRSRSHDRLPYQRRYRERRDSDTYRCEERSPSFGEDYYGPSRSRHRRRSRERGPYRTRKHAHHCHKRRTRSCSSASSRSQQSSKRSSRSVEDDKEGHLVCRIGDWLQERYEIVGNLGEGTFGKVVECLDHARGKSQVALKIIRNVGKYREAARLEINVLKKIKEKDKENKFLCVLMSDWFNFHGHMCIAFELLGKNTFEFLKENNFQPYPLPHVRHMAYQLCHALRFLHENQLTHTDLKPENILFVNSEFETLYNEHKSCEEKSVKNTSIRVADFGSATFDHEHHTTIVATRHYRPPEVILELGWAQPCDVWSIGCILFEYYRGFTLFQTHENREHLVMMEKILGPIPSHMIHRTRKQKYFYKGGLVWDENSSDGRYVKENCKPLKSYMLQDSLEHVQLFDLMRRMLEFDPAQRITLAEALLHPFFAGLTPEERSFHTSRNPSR
# procedure details: CLK3 kinase activity assay (Z-lyte FRET);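 further: kinase activity read as coumarin/fluorescein emission ratio by FRET, unphosphorylated peptide as 0% and phosphorylated peptide as 100% control, values from non-linear regression of dose-response curves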
# recorded conditions: Z-lyte Ser/Thr 18 peptide, 156 μM ATP, 1 h at room temperature
pEC50: −log10 of the molar value.
# pEC50 >= 7 gives Criterion met, anything below gives Criterion not met

Before answering, review these 8 worked examples.
Cc1cn(-c2nccc3[nH]c(-c4n[nH]c5ccc(-c6cncc(NC(=O)C(C)(C)C)c6)nc45)nc23)cn1
Criterion not met
CCNCc1cncc(-c2cc3c(-c4cc5c(-c6ccccc6F)ccnc5[nH]4)n[nH]c3cn2)c1
Criterion not met
COc1cncc(C(=O)Nc2c[nH]nc2C(=O)Nc2ccc(CN(C)C)cc2)c1
Criterion not met
c1cncc(-c2ccc3[nH]nc(-c4nc5c(-c6ccoc6)cncc5[nH]4)c3c2)c1
Criterion met
CN(C)CCNc1cc(F)cc(-c2cccc3[nH]c(-c4n[nH]c5cnc(-c6cncc(N)c6)cc45)cc23)c1
Criterion met
CN(C)Cc1ccc(C(=O)Nc2cc3cc(-c4cnn(C)c4)ccc3cn2)cc1
Criterion met
CC(C)Nc1cncc(-c2ccc3[nH]nc(-c4nc5c(-c6cccnc6)nccc5[nH]4)c3n2)c1
Criterion not met
CN1CCN(c2nccc3[nH]c(-c4n[nH]c5ccc(-c6cncc(NC(=O)C7CCCCC7)c6)cc45)cc23)CC1
Criterion not met

Enquiry: Item O=C(Nc1ccc(C2CCC(F)(F)C2)nc1)c1n[nH]cc1C#Cc1cccnc1 (stereo not drawn) with pEC50 of 7 or above?
Return: Criterion not met

Enquiry: What do we get for O=C(Nc1cncc(-c2cnc3[nH]nc(-c4cc5c(N6CCCCC6)nccc5[nH]4)c3c2)c1)C1CC1 ?
Return: Criterion not met

Enquiry: What do we get for Nc1cncc(-c2ccc3[nH]nc(-c4nc5c(-c6ccccc6F)ccnc5[nH]4)c3c2)c1 ?
Return: Criterion met

Enquiry: What do we get for Nc1ncc(NC(=O)c2n[nH]c3ccc(-c4cncc(CN5CCCCC5)c4)cc23)cn1 ?
Return: Criterion met

Enquiry: What do we get for Cc1ncc(C(=O)Nc2cc3nc(-c4cnc(C)n4C)ccc3cn2)s1 ?
Return: Criterion met

Enquiry: What do we get for O=C(Nc1cc2cc(-c3cncc(NC4CCNC[C@@H]4F)n3)ccc2cn1)C1CC1 (stereo partly drawn) ?
Return: Criterion met

Enquiry: What do we get for O=C(Nc1cncc(-c2cc3c(-c4cc5c(-c6ccc(F)cc6)nccc5[nH]4)n[nH]c3cn2)c1)C1CC1 ?
Return: Criterion not met

Enquiry: What do we get for Cc1ccncc1-c1cc2c(-c3nc4c(-c5cc(F)cc(CNS(C)(=O)=O)c5)ccnc4[nH]3)n[nH]c2cn1 ?
Return: Criterion met

Enquiry: What do we get for CN(C)Cc1cncc(-c2cc3c(-c4nc5c(-c6cccc(F)c6)cccc5[nH]4)n[nH]c3cn2)c1 ?
Return: Criterion met

Enquiry: What do we get for CC(C)Nc1cncc(-c2ccc3[nH]nc(-c4nc5c(-c6cc(F)cc(NCCN(C)C)c6)nccc5[nH]4)c3c2)c1 ?
Return: Criterion met

Enquiry: What do we get for O=C(Nc1c[nH]nc1C(=O)Nc1ccc(N2CCCC2)nc1)c1cncc(OC2CCNCC2)c1 ?
Return: Criterion not met

Enquiry: What do we get for c1cncc(-c2cnc3[nH]nc(-c4nc5c(-c6cccs6)cccc5[nH]4)c3c2)c1 ?
Return: Criterion met

Enquiry: What do we get for COc1ccc(NC(=O)c2n[nH]c3ccc(-c4cncc(CN5CCCCC5)c4)cc23)cn1 ?
Return: Criterion met
